Where do these numbers come from? They come from patent US20200002421A1.

# measured_on: T1, Cynomolgous B7-H3 on cells (cynomolgus)
# T1 construct: whole, on cells; also called cyno B7-H3; cyB7-H3
# procedure_text: FACS, 3T12 transfectants
pEC50: −log10 of the molar value.
result_type: pEC50

[[record]]
binder = "huAb3v2.2 (antibody, V domains shown) VH: EVQLVQSGAEVKKPGSSVKVSCKASGYTFSSYWMHWVRQAPGQGLEWIGLIHPWSGSTNYNEMFKNRATLTVDRSTSTAYMELSSLRSEDTAVYYCAGGGRLYFDYWGQGTTVTVSS VL: DIVMTQSPLSLPVTPGEPASISCRSSQSLVHSNRDTYLRWYLQKPGQSPQLLIYKVSNRFSGVPDRFSGSGSGTDFTLKISRVEAEDVGVYYCSQSTHVPYTFGGGTKVEIK"
result_type = "pEC50"
obs_value = 8.43

[[record]]
binder = "huAb3v2.3 (antibody, V domains shown) VH: EVQLVQSGAEVKKPGSSVKVSCKASGYTFSSYWMHWVRQAPGQGLEWIGLIHPWSGSTNYNEMFKNRATLTVDRSTSTAYMELSSLRSEDTAVYYCAGGGRLYFDYWGQGTTVTVSS VL: DIVMTQSPLSLPVTPGEPASISCRSSQSLVHSNQDTYLRWYLQKPGQSPQLLIYKVSNRFSGVPDRFSGSGSGTDFTLKISRVEAEDVGVYYCSQSTHVPYTFGGGTKVEIK"
result_type = "pEC50"
obs_value = 8.39

[[record]]
binder = "huAb3v2.9 (antibody, V domains shown) VH: EVQLVQSGAEVKKPGSSVKVSCKASGYTFSSYWMHWVRQAPGQGLEWIGLIHPISGSTNYNEMFKNRATLTVDRSTSTAYMELSSLRSEDTAVYYCAGGGRLYFDYWGQGTTVTVSS VL: DIVMTQSPLSLPVTPGEPASISCRSSQSLVHSNQDTYLRWYLQKPGQSPQLLIYKVSNRFSGVPDRFSGSGSGTDFTLKISRVEAEDVGVYYCSQSTHVPYTFGGGTKVEIK"
result_type = "pEC50"
obs_value = 8.33

[[record]]
binder = "huAb3v2.8 (antibody, V domains shown) VH: EVQLVQSGAEVKKPGSSVKVSCKASGYTFSSYWMHWVRQAPGQGLEWIGLIHPISGSTNYNEMFKNRATLTVDRSTSTAYMELSSLRSEDTAVYYCAGGGRLYFDYWGQGTTVTVSS VL: DIVMTQSPLSLPVTPGEPASISCRSSQSLVHSNRDTYLRWYLQKPGQSPQLLIYKVSNRFSGVPDRFSGSGSGTDFTLKISRVEAEDVGVYYCSQSTHVPYTFGGGTKVEIK"
result_type = "pEC50"
obs_value = 8.52

[[record]]
binder = "huAb3v2.5 (antibody, human IgG1, kappa, L234A L235A, V domains shown, Ig gamma-1 mutant / kappa) VH: EVQLVQSGAEVKKPGSSVKVSCKASGYTFSSYWMHWVRQAPGQGLEWIGLIHPESGSTNYNEMFKNRATLTVDRSTSTAYMELSSLRSEDTAVYYCAGGGRLYFDYWGQGTTVTVSS VL: DIVMTQSPLSLPVTPGEPASISCRSSQSLVHSNRDTYLRWYLQKPGQSPQLLIYKVSNRFSGVPDRFSGSGSGTDFTLKISRVEAEDVGVYYCSQSTHVPYTFGGGTKVEIKR"
result_type = "pEC50"
obs_value = 8.31

[[record]]
binder = "huAb3v2 (antibody, V domains shown) VH: EVQLVQSGAEVKKPGSSVKVSCKASGYTFSSYWMHWVRQAPGQGLEWIGLIHPDSGSTNYNEMFKNRATLTVDRSTSTAYMELSSLRSEDTAVYYCAGGGRLYFDYWGQGTTVTVSS VL: DIVMTQSPLSLPVTPGEPASISCRSSQSLVHSNGDTYLRWYLQKPGQSPQLLIYKVSNRFSGVPDRFSGSGSGTDFTLKISRVEAEDVGVYYCSQSTHVPYTFGGGTKVEIK"
result_type = "pEC50"
obs_value = 8.54

[[record]]
binder = "huAb3v2.6 (antibody, human IgG1, kappa, L234A L235A, V domains shown, Ig gamma-1 mutant / kappa) VH: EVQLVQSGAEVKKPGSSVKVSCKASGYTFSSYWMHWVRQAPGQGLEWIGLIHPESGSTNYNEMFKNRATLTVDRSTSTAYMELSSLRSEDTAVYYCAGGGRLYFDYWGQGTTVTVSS VL: DIVMTQSPLSLPVTPGEPASISCRSSQSLVHSNQDTYLRWYLQKPGQSPQLLIYKVSNRFSGVPDRFSGSGSGTDFTLKISRVEAEDVGVYYCSQSTHVPYTFGGGTKVEIKR"
result_type = "pEC50"
obs_value = 8.48

